Recorded PsV neutralization IC90 for the following binders
Target: SARS-CoV-2 wild type spike protein (on reporter virus particles) (SARS-CoV-2, UniProt P0DTC2 14-1273)
Test: cell-based or functional assay
# number only, unit µg/mL dropped from output

Solved entries (count: 3):
binder | PsV neutralization IC90, µg/mL
A-9 (antibody, V domains shown) VH: EVQLVESGGGLVKPGRSLRLSCAASGFTFADYAMSWFRQAPGKGLEWVGFIRSKPYGGTTEYAASVKGRFTISRDDSKSIAYLQMNSLKTEDTAVYYCSRDPWYCSGGDCYAVTGSWFDPWGQGTLVTVSS VL: DIVLTQSPSSLSASVGDRVTITCQASQDIKKYLNWYQQKPGKAPKLLIYDVSNLETGVPSRFSGSGSGTDFTFTISSLQPEDVAIYYCQQYDNLPQTFGQGTKVDIK | 0.164
A-16 (antibody, V domains shown) VH: QVQLVESGGGLVQPGRSLRLSCAASGFTFDDYAMHWVRQAPGKGLEWVSGISWNSGTIGYADSVKGRFIISRDNAKNSLYLQMNSLRGEDMALYYCGKDRKREDPSLGGMDVWGQGTTVTVSS VL: SYELTQPPSVSVAPGQTARITCGGNNIGSKSVHWYQQKPGQAPVLVVYDDTDRPSGIPERFSGSNSGNTATLTISRVEAGDEADYYCQVWDSSSDHYVFGTGTKLTVL | 0.399
A-6 (antibody, V domains shown) VH: QVQLVQSGGGVVQPGRSLRLSCAASGFTFSNFAMHWVRQAPGKGLEWVAVILYDGINKYYADSVKGRFTISRGNSKNTLSLQMNSLRAEDTAVYYCARAQNYYDRSGTLQLDAFDIWGQGTMVTVSS VL: DIVMTQSPSSLSASVGDRVTITCRASQGIRNDLGWYQQKPGKAPKLLIYAASSLQSGVPSRFSGSGSGTDFTLTISSLQPEDFATYYCLQDYNYPLTFGGGTKVEIK | 2.03

State the recorded PsV neutralization IC90 for this entry: A-18 (antibody, V domains shown) VH: EVQLLESGGGLVQPGGSLRLSCAASGFTFSRYWMHWVRQAPGKGLVWVSRINSDGSSTTYADSVKGRFTISRDNAKNTLYLQMNSLRAEDTAVYYCARELYYYDSRGAEEGEGWFDPWGQGTLVTVSS VL: QSVLTQPPSVSGAPGQRVTISCTGISSNIGAGYDVHWYQQLPGTAPKLLIYGNSNRPSGVPDRFSASKSGTSAPLAITGLQAEDEADYYCQSSDRSLSGSVFGTGTKLTVL 1.82
